- System: Vero E6 infected with SARS-CoV-2
- PROCEDURE TEXT: inhibition of SARS-CoV-2 cytopathic effect; higher = more antiviral protection, active = above 15
- RUN CONDITIONS: 8.33 nM; 48 h
Catalogue of inhibition of SARS-CoV-2 cytopathic effect readings, one per entry.
Provide only the numeric value, understood in %.

O=C(O)COc1ccc(/C=C2\SC(=O)NC2=O)cc1; 0.67
COc1cc(NS(C)(=O)=O)ccc1Nc1c2ccccc2nc2ccccc12; 1.72

We next turn to a different molecule, shown below.
stdin: Recall and state the measured inhibition of SARS-CoV-2 cytopathic effect for N#CCCCSC(=N)N .
stdout: -2.73

* * *

- Tested on: Vero E6 infected with SARS-CoV-2
- PROCEDURE TEXT: inhibition of SARS-CoV-2 cytopathic effect; higher = more antiviral protection, active = above 15
- RUN CONDITIONS: 10000 nM; 48 h
READOUT KIND: inhibition of SARS-CoV-2 cytopathic effect (%)
Provide only the numeric value, understood in %.

These recorded examples may help you get a feel for the data.
Cc1cc(O)c(C(C)C)cc1Cl [chlorothymol]; -5.16
O=C(O)CCN(O)C(=O)CCCCCCCCC1CC1; 5.29
O=C(COc1ccc(Cl)cc1)N1CCN(Cc2ccc3c(c2)OCO3)CC1 [fipexide]; 0.49

stdin: Recall and state the measured inhibition of SARS-CoV-2 cytopathic effect for COc1cc2nccc(Oc3ccc(NC(=O)C4(C(=O)Nc5ccc(F)cc5)CC4)cc3)c2cc1OC [cabozantinib] .
stdout: -14.2

stdin: Recall and state the measured inhibition of SARS-CoV-2 cytopathic effect for CS(=O)(=O)c1cccc(CNc2nc(Nc3ccc4c(c3)CCC(=O)N4)ncc2C(F)(F)F)c1 .
stdout: -3.75

stdin: Recall and state the measured inhibition of SARS-CoV-2 cytopathic effect for CC(C)(C)/[N+]([O-])=C/c1ccc(S(=O)(=O)O)cc1S(=O)(=O)O .
stdout: 0.8

stdin: Recall and state the measured inhibition of SARS-CoV-2 cytopathic effect for c1ccc(Cn2c(N3CCNCC3)nc3ccccc32)cc1 [lerisetron] .
stdout: -5.52

stdin: Recall and state the measured inhibition of SARS-CoV-2 cytopathic effect for c1cn2cc(-c3ccc4cn[nH]c4c3)nc(Nc3ccc(N4CCOCC4)cc3)c2n1 .
stdout: -4.57

stdin: Recall and state the measured inhibition of SARS-CoV-2 cytopathic effect for C#C[C@]1(O)CC[C@H]2[C@@H]3CCC4=CC(=NO)CC[C@@H]4[C@H]3CC[C@@]21CC (mixture of isomers) [norelgestromin] .
stdout: 2.14

* * *

- Tested on: Vero E6 infected with SARS-CoV-2
- PROCEDURE TEXT: inhibition of SARS-CoV-2 cytopathic effect; higher = more antiviral protection, active = above 15
- RUN CONDITIONS: 1 nM; 48 h
Catalogue of inhibition of SARS-CoV-2 cytopathic effect readings, one per entry.
Provide only the numeric value, understood in %.

stdin: Recall and state the measured inhibition of SARS-CoV-2 cytopathic effect for CCN(CCNC(=O)Nc1ccccc1Br)c1cccc(C)c1 .
stdout: -0.09

* * *

Catalogue of inhibition of SARS-CoV-2 cytopathic effect readings, one per entry.
- Test system: Vero E6 infected with SARS-CoV-2
- PROCEDURE TEXT: inhibition of SARS-CoV-2 cytopathic effect; higher = more antiviral protection, active = above 15
- RUN CONDITIONS: 833.33 nM; 48 h
Provide only the numeric value, understood in %.

These recorded examples may help you get a feel for the data.
CN(C)CCN(C)CCc1ccc(Cl)c(Cl)c1; -3.83
C#Cc1cnc2nc(O)n(C(CC)CC)c2n1 [tirasemtiv]; 2.57
CCN[C@H]1CN(CCCOC)S(=O)(=O)c2sc(S(N)(=O)=O)cc21 [brinzolamide]; -1.67
C[C@@H](O)[C@H](N)C(=O)N1CCC[C@H]1C(=O)N1CCC[C@H]1C(=O)N[C@H](C(N)=O)[C@@H](C)O [rapastinel]; -1.01
Nc1nc(-c2ccc(Cl)c(Cl)c2)c(-c2ccncc2)s1; -2.03
O=c1[nH]ccc2cc(OC3CCNCC3)ccc12; -3.34

We next turn to a different compound, shown below.
stdin: Recall and state the measured inhibition of SARS-CoV-2 cytopathic effect for O=C(N/N=C/c1ccc([N+](=O)[O-])o1)c1cc([N+](=O)[O-])cc([N+](=O)[O-])c1O [nifursol] .
stdout: 2.62

Ref: the supplement of paper PMC13380429
